Overview of reported viability at 28.5 h, 10 µM across a group of compounds:
Experiment: in vitro
Conditions: human, hela cells, % viability
MEASURED QUANTITY: viability at 28.5 h, 10 µM (%)

O=[N+]([O-])c1cc2c(cc1C1NN=C(c3ccccc3)S1)OCO2 (centres unmarked); 112
CCn1nccc1C(=O)N1CCC(c2cc3c(C)cccc3cn2)CC1; 92.4
NC1CCN(c2ncccn2)CC1; 98.7
O=C(c1cccs1)N1CCCC1c1nc2ccccc2[nH]1 (centres unmarked); 81.8
FC(F)(F)C1(NC2(C(Cl)(Cl)Cl)Oc3ccccc3O2)Oc2ccccc2O1; 90.5
COc1ccc(-c2onc(C)c2-c2cnn(-c3ccccc3)c2)c(O)c1; 116
CCNS(=O)(=O)c1ccc(NS(=O)(=O)c2cc(C(=O)O)ccc2C)cc1; 82.8
Cc1ccc2c(N)c(C(=O)c3ccccc3)sc2n1; 88.1
Cc1ccc(S(=O)(=O)N(C)c2c(C)ccc(S(=O)(=O)N(C)CCO)c2C)cc1; 85.5
CCOC(=O)c1cnn(C2CCCN(Cc3cc(C#N)cs3)C2)c1 (centres unmarked); 101
Nc1cccc(-c2nc(NC(=O)c3ccncc3)cnc2-c2ccc(F)c(Cl)c2)c1; 114
O=C(CCn1c(C(F)(F)F)cc2cccnc21)NCc1ccncc1; 90.5
CCNC(=O)C1(NC(=O)c2cn3ccccc3n2)CCCCC1; 102
Brc1cn2c(-c3ccccc3)cnc2c(N2CCCC2)n1; 106
CC(C)Cc1ccc(S(=O)(=O)Nc2ccc3[nH]c(=O)[nH]c3c2)cc1; 94.3
CS(=O)(=O)Nc1cc2ccccc2c(-c2cccnc2)n1; 108
C=CCn1c(Cc2csc(NC(=O)c3cccc([N+](=O)[O-])c3)n2)n[nH]c1=S; 106
Oc1noc(O)c1-c1ncc(C(F)(F)F)cc1Cl; 91.1
O=C(c1ccccc1)c1ccc2n1CCC2C(=O)Nc1ccccc1F (centres unmarked); 90.5
CC1CCN(CCN2CCn3c2nc2ccccc23)CC1 [CBK265467B]; 80

---

Overview of reported viability at 28.5 h, 10 µM across a group of molecules:
Assay: in vitro
Conditions: human, hela cells, % viability
MEASURED QUANTITY: viability at 28.5 h, 10 µM (%)

Nc1ncc(-c2ccc(C(=O)N3CCOCC3)cc2)nc1-c1ccc(C[C@H](N)C(=O)O)cc1 [CBK126364]; 97
COc1cc(/N=C(\N)Nc2nc(=O)cc(CSc3ccc(C)cc3)[nH]2)cc(OC)c1 [CBK265532]; 83.4
Cc1nc2ccc(C(=O)O)cc2c2c1CC(CN)O2 (stereo not drawn) [CBK286974]; 97.7
CCOc1ccc(S(=O)(=O)N2CCCN(Cc3ccc(F)cc3F)CC2)c2cccnc12 [CBK062757]; 109
COc1cc(/C=C(/C#N)c2ccc(C(=O)O)cc2)ccc1OCc1cccc([N+](=O)[O-])c1 [CBK269057]; 108
CC(C)(C)CC(C)(C)Nc1nc(N)nc(N)n1 [CBK022832]; 101
O=C(C1=C(O)C(=O)N(c2ccc([N+](=O)[O-])cc2)C1c1ccccc1)c1ccccc1 (stereo not drawn) [CBK263787]; 94.4
OCCc1ccc(Oc2ncc(C(F)(F)F)cc2Cl)cc1 [CBK161643]; 94.6
O=C(Nc1ccccc1C(F)(F)F)c1ccc(-n2cnnn2)cc1 [CBK300521]; 86.8

---

Overview of reported viability at 28.5 h, 10 µM across a group of compounds:
Experiment: in vitro
Details: human, hela cells, % viability
MEASURED QUANTITY: viability at 28.5 h, 10 µM

Nc1nc(-c2ccccc2)c(C(=O)Nc2ccccc2)s1; 95.2%
COc1ccc(C(CC(=O)O)CC(=O)O)cc1OC; 91.9%
CCN(CC(=O)N1CCN(C)CC1)S(=O)(=O)c1cc(Cl)ccc1Cl; 104%
Cc1oc2ccc(O)cc2c1C(=O)N(C)CCN1CCCCC1; 83%
Cc1nc(C)n(CC2CCCN(Cc3cn4ccccc4n3)C2)n1 (centres unmarked); 88.3%

---

Assay: in vitro
Design: Viability of infected HeLa host cells, resazurin conversion, bulk resorufin fluorescence relative to DMSO
Conditions: human, hela cells; bulk resorufin, mean of 2
MEASURED QUANTITY: viability at 28.5 h, 5 µM

Cc1noc(NS(=O)(=O)c2ccc(NC(=O)COc3cccc(Br)c3)cc2)c1C [CBK264086]; 91.3%
CC(=O)N1CCc2sccc2C1c1ccccc1NCc1ccoc1 (stereo not shown) [CBK286432]; 86.8%
Cc1ccc(C(=O)NC2CCCC2)cc1[N+](=O)[O-] [CBK001993]; 110%
O=C(NCc1ccc([N+](=O)[O-])cc1)c1cccnc1NCc1ccc2c(c1)OCO2 [CBK153436]; 109%
O=C(Nc1ccc(F)c(F)c1)NC1CCC2CN(CCOc3ccccc3)CC2C1 (stereo not shown) [CBK083365T]; 86.5%
CCOc1ccsc1C(=O)Nc1cc(C)ccn1 [CBK004029]; 92.3%
C[C@@H]1CN(c2ccc(C(F)(F)F)c(OCc3ccccc3)n2)CCN1 [CBK003987A]; 98.9%
COc1ccc(OC)c(Nc2nc(NCC3CCCO3)c3ccccc3n2)c1 (stereo not shown) [CBK268403C]; 96.9%
CN(C)CCCNC(=O)c1ccc([N+](=O)[O-])o1 [CBK262118]; 98.6%
CCC(CN1CCCC1)NC(=O)Cc1ccc(OC)c(C)c1 (stereo not shown) [CBK282752]; 112%

---

Overview of reported viability at 28.5 h, 10 µM across a group of molecules:
Assay: in vitro
Conditions: human, hela cells, % viability
MEASURED QUANTITY: viability at 28.5 h, 10 µM (%)

O=C(O)c1cccc(/N=C/c2ccc(/C=N/c3cccc(C(=O)O)c3)cc2)c1; 92.3
Cc1ccc(-c2ncc(OCC3CCCN3C)nc2N)c(C)c1 (centres unmarked); 99.2
CN(C)CC(=O)N1c2ccccc2CCc2ccc(NC(=O)c3ccccc3)cc21 [CBK261289C]; 94.2
COc1cc(CNc2cc(-c3cccc4cccnc34)ncn2)cc(OC)c1OC; 76.6
CC(C)N(Cc1nc(-c2ccc(Cl)cc2)no1)S(=O)(=O)c1cccc([N+](=O)[O-])c1; 83.6

---

Assay: in vitro
Conditions: human, hela cells, % viability
MEASURED QUANTITY: viability at 28.5 h, 10 µM (%)

COc1ccc(N2CCN(CC(=O)N3c4ccccc4Sc4ccccc43)CC2)cc1 [CBK269398]; 89.1
CCn1c(CN2CCn3c(nnc3C3CC3)C2)nc2c(F)cccc21 [CBK306300]; 96.6
CCn1cncc1CN(CCCn1ccnc1)CC1CC=CCC1 (stereo not shown) [CBK283220]; 101
Cn1ccc(CN2CCOC(c3nc(C(C)(C)C)cs3)C2)cc1=O (stereo not shown) [CBK305771]; 108
COc1ccccc1-c1nccnc1OCCC(C)C [CBK106818]; 109
O=C(O)CC(C(=O)OC1CCCCC1)N1CCOCC1 (stereo not shown) [CBK265970]; 95.1
Oc1ccc(Oc2ccc(Oc3ccc(O)cc3)cc2)cc1 [CBK033968]; 107
CNC(=O)c1ccc(NC(=O)CC(C)(C)CC(=O)O)cc1 [CBK296615]; 95.8
CCCCCc1nnc(NC(=O)c2cccs2)s1 [CBK058382]; 103
O=C(Cn1cccn1)N1CCc2[nH]c3ccccc3c2C1 [CBK281839]; 92.6

---

Overview of reported viability at 28.5 h, 10 µM across a group of compounds:
Experiment: in vitro
Settings: human, hela cells, % viability
MEASURED QUANTITY: viability at 28.5 h, 10 µM (%)

O=C(O)CCC(NC(=O)c1ccc(-c2ccc(Cl)cc2)s1)C(=O)O (stereo not drawn); 92.9
O=C(CCCSC1=NC(C(F)(F)F)CC(c2ccco2)N1)Nc1ccc(Cl)c(Cl)c1 (stereo not drawn); 88
CCc1cc(=O)[nH]c(-c2ccc(N(C)CC(C)O)nc2)n1 (stereo not drawn); 88.4
COC(=O)CSc1nnc(COc2ccc3c(c2)OCO3)n1-c1ccccc1; 107
Cc1cccnc1C(NC(=O)C1CCN(CCOc2ccccc2)CC1)c1ccc(F)cc1 (stereo not drawn); 91.8
COC(=O)[C@@H]1Cc2c([nH]c3ccccc23)[C@H]2C[C@H](NCCO)C[C@@H](c3ccccc3)N21; 94.8
COc1cc(C(=O)NN)cc(OC)n1; 83.7
COC(=O)c1ccc(NC(=O)CN2CCC(C(N)=O)(N3CCCCC3)CC2)cc1; 95.5
CC(C)CNc1nnc(-c2ccccc2[N+](=O)[O-])s1; 82.1

---

Assay: in vitro
Details: human, hela cells, % viability
MEASURED QUANTITY: viability at 28.5 h, 10 µM (%)

O=C(NCCc1ccc(O)cc1)c1ccc2nc[nH]c2c1; 106
Fc1ccc(-c2cn3ccnc3c(NC3CC3)n2)cc1F; 101
COc1ccc(-c2nc3ccccc3s2)cc1O; 91.6
Cc1cc(C2CCCCCN2C(=O)c2c(C)noc2C)on1 (centres unmarked); 90
O=c1[nH]c(CNc2ccccc2)nc2ccccc12; 103
CN(C)CCN(Cc1ccccc1)C(=O)NCc1ccc(Cl)cc1; 94.2
COc1ccccc1-c1ccccc1CC1(C(=O)NCc2ccc(F)cc2)CCOCC1; 90
CNS(=O)(=O)c1c(C)nn(-c2ccccc2)c1C; 102
COC(=O)c1sc2cc(C(F)(F)F)cnc2c1-c1cccnc1; 112
CC1=NN(c2ccccc2)C(=O)/C1=C/Nc1ccc(S(=O)(=O)Nc2nc(C)cc(C)n2)cc1; 106
C=CCOc1ccc(OCCN2CC(C)OC(C)C2)cc1 (centres unmarked) [CBK269646C]; 112
NCCCN(Cc1ccco1)C1CCCC1; 109
CCCCN(C)c1c(CC)nc2ccc(C(=O)NC3=NC(=O)CS3)cn12; 102
O=CN1CCc2c([nH]c3cc(F)ccc23)C12CCN(CCc1cccs1)CC2; 81.2
Cc1cc2nc(-c3ccccn3)[nH]c2cc1C; 119
O=C(NCCc1c[nH]c2ccccc12)c1ccc(-c2ccco2)nc1N1CCN(C(=O)c2ccco2)CC1; 95.4
Cn1c(=O)c2[nH]c(-c3ccncc3)nc2n(C)c1=O; 92.5
CN(C)C(=O)c1cc(-c2ccco2)cnc1NS(C)(=O)=O; 116
OC1(c2ccccc2)CCN(Cc2cncn2Cc2ccccc2)C1 (centres unmarked); 110
COc1ccc(Br)cc1S(=O)(=O)Nc1cccc(C(=O)Nc2ccc(F)cc2)c1; 75.4
FC(F)(F)Oc1ccc(-c2c[nH]c([C@@H]3COCCN3Cc3c[nH]cn3)n2)cc1; 111
O=C1c2ccccc2C(=O)N1CCc1nc2c3c4c(sc3ncn2n1)CCCCC4; 96.6
O=C1CNC(=O)C2(C/C=C/C[C@H]3COCC[C@@H]3N1)CCN(CC(=O)N1CCCCC1)CC2; 111
O=C(Nc1ccc(S(=O)(=O)Nc2nccc(/C=C/c3ccc(Cl)cc3)n2)cc1)c1ccc(Br)cc1; 103
Clc1ccc(CN2CCC(Oc3cncc(OCCN4CCOCC4)n3)C2)cc1Cl (centres unmarked); 91.4
CC(C)N1CC[C@@H]2[C@H]1C(=O)NC[C@H](CCC(=O)Nc1ccccc1)N2C; 86.1
CCCC(=O)N1CCN(Cc2ccc3c(c2)OCO3)CC1; 92.7
COCCN(C(=S)Nc1ccc(OC)cc1)C(C)c1cccnc1 (centres unmarked); 83.7
C=CCN1C(=O)CC2(C1=O)C(=O)N(CCCN1C(=O)c3ccccc3C1=O)c1ccc(Cl)cc12 (centres unmarked); 92.6
CN(C)CC(=O)N1CCc2nc(-c3cccc(F)c3)sc2C1; 106
Cc1ccc(CC(=O)N2CCCC2c2n[nH]cc2-c2ccncc2)cc1 (centres unmarked); 106
CCn1c(SCC(=O)O)nnc1-c1c[nH]c2ccccc12; 85.9
Cc1ccc(CNC(=O)Cc2ccc(-c3ccc(CN4CCC(C)CC4)cc3)nc2)cc1F; 97.4
O=C1CC(C(=O)c2ccccc2)NC(N2CCOCC2)=N1 (centres unmarked); 105
CC(C)c1ccc(C(C)NC(=O)c2ccc(=O)n(CC(=O)N3CCCCC3)c2)cc1 (centres unmarked); 88.7
COCCCNC(=O)CN1CCCCC1Cn1nc(C)cc1C (centres unmarked); 104
Nc1ncc2ncn([C@@H]3O[C@H](CO)[C@H](O)C3O)c2n1 (some centres unmarked); 92.8
CCN(CC)C(=O)c1ccc(NC(=O)CSc2n[nH]c(=O)n2CC2CCCO2)cc1 (centres unmarked); 77.6
